Tested on: GFP-14-3-3β and its binding proteins
test_details: GFP-14-3-3β co-IP with LC-MS/MS label-free quantification, untreated versus PP1c-treated
Design: species or system human
condition_context: PP1 vs untreated; label-free quantification
Difference (log2), PP1 vs untreated overview
State the answer as a number, implicitly in log2.

[[record]]
molecule = "DPM1 (protein, UniProt O60762 2-260, looked up) Dolichol-phosphate …: ASLEVSRSPRRSRRELEVRSPRQNKYSVLLPTYNERENLPLIVWLLVKSFSESGINYEIIIIDDGSPDGTRDVAEQLEKIYGSDRILLRPREKKLGLGTAYIHGMKHATGNYIIIMDADLSHHPKFIPEFIRKQKEGNFDIVSGTRYKGNGGVYGWDLKRKIISRGANFLTQILLRPGASDLTGSFRLYRKEVLEKLIEKCVSKGYVFQMEMIVRARQLNYTIGEVPISFVDRVYGESKLGGNEIVSFLKGLLTLFATT"
endpoint = "Difference (log2), PP1 vs untreated"
obs_value = 0.914


Kindly consider the entry below.
Data request: Identify the reported Difference (log2), PP1 vs untreated for the following entry. BANF1 (protein, UniProt O75531 1-89, looked up) Barrier-to-autointegration …: MTTSQKHRDFVAEPMGEKPVGSLAGIGEVLGKKLEERGFDKAYVVLGQFLVLKKDEDLFREWLKDTCGANAKQSRDCFGCLREWCDAFL
Data returned: 1.068
